# System: Klebsiella pneumoniae
# assay.name: Antimicrobial activity against multidrug resistant Klebsiella pneumoniae isolate 12 by broth dilution method in presence of 26.3 mg/L efflux pump inhibitor phenylalanine-arginine-beta-naphthylamide
# Assay type: functional
measured.property: MIC

Example cases with answers are listed next.
INSERT INTO results (molecular_string, target_or_system, result_value) VALUES
  ('O=C(N[C@H](CO)[C@H](O)c1ccc([N+](=O)[O-])cc1)C(Cl)Cl', 'Klebsiella pneumoniae', '2 µg/mL'),
  ('C[C@@H]1CN(c2c(F)c(N)c3c(=O)c(C(=O)O)cn(C4CC4)c3c2F)C[C@H](C)N1', 'Klebsiella pneumoniae', '≤ 0.06 µg/mL'),
  ('CCn1cc(C(=O)O)c(=O)c2cc(F)c(N3CCNCC3)cc21', 'Klebsiella pneumoniae', '0.25 µg/mL');

Now examine the next entry.
Query: Field request: MIC | item: CN(C)[C@@H]1C(O)=C(C(N)=O)C(=O)[C@@]2(O)C(O)=C3C(=O)c4c(O)cccc4[C@@](C)(O)[C@H]3C[C@@H]12
Reply: 256 µg/mL
